Molecular target: T1, human αvβ3 integrin ITGAVB3 (human, UniProt P06756 31-992; P05106 27-718, limits assumed)
T1 construct: Recombinant heterodimer used as immunogen, ELISA coating and SPR ligand; also called A5B3; A5b3
T1 sequence (P06756 31-992 limits assumed, chain 1 of 2): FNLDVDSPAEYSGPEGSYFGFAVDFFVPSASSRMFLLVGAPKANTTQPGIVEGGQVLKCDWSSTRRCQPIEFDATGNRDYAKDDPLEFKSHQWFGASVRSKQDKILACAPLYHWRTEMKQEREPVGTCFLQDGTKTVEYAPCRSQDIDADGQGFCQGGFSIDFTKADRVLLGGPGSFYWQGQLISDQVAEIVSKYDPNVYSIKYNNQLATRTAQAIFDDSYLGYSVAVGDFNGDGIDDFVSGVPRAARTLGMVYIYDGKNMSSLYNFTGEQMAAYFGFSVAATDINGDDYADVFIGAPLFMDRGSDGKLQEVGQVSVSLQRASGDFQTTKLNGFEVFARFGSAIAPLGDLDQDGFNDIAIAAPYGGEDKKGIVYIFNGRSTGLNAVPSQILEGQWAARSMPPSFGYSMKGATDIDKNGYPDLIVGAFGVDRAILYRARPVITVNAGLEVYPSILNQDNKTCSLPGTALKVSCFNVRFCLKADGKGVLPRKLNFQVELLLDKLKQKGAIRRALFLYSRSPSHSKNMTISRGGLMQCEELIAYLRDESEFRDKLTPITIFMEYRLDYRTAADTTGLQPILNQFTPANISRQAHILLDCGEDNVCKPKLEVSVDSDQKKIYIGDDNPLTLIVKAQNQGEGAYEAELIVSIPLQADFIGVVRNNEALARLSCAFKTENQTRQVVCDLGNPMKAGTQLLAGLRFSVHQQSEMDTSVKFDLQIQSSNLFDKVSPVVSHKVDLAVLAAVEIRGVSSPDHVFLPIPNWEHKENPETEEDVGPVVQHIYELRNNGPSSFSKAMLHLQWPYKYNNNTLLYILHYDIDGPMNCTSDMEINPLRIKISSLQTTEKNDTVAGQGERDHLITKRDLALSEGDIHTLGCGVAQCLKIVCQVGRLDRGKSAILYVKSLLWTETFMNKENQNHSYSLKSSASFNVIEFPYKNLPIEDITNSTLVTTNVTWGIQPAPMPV
T1 sequence (P05106 27-718 limits assumed, chain 2 of 2): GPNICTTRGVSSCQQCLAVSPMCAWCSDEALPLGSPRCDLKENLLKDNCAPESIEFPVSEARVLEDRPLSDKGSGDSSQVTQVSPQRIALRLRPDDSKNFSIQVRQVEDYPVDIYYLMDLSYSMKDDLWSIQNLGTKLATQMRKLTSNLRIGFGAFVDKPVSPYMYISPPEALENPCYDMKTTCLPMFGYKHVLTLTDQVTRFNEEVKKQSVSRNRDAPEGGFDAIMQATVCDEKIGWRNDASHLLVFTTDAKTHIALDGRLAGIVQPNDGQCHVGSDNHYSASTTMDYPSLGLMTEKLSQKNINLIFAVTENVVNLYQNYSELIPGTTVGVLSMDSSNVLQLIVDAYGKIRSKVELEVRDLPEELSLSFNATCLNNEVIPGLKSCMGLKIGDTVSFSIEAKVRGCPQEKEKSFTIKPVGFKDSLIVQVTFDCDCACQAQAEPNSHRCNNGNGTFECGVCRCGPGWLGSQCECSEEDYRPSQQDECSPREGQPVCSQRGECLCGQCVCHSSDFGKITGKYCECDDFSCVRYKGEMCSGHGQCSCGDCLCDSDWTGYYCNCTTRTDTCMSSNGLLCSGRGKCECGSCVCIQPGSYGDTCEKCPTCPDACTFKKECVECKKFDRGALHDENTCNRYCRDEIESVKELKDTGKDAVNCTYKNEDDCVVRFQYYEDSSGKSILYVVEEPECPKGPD
Test: ELISA of soluble VHH (TG1 lysate), induced at 30 C, coated ITGAVB3
The binders listed here are annotated with their OD490.

{"BINDER": "VHH-11 (VHH, also called clone 11) VHH: DVQLVESGGGSVQPGESLRLSCVASGYTVSSSCMAWFRQAPGKEREVVATIVVTSDTTSTFYADSVKGRFTISPDNAKNTLNLQMNSLEPSDTAMYYCAADRKWNVCSRGYRYTPNWANQFTFWGQGTLVTVSS", "OD490": 0.334}
{"BINDER": "VHH-12 (VHH, also called clone 12) VHH: EVQLVESGGGSVQPGESLRLSCVASGYTVSSSCMAWFRQAPGKEREVVATIVVTSDTTSTFYADSVKGRFTISPDNAKNTLNLQMNSLEPSDTAMYYCAADRKWNVCSRGYRYTPNWANQFTFWGQGTQVTVSS", "OD490": 1.87}
{"BINDER": "VHH-25 (VHH, also called clone 25) VHH: EVQLVESGGGSVQAGGSLRLSCVVSGYTCSVYDMIWYRQPPGKEREFVSLINSNGRTTYADSVKGRFTISQNNAKNTVYLQMNSLKPEDTAMYYCHAACYSPSRLNYWGQGTQVTVSS", "OD490": 2.01}
{"BINDER": "VHH-16 (VHH, also called clone 16) VHH: DVQLVESGGGSVQPGGSLRLSCAASGYTVENSCMAWFRQAPGKEREVVATIVTNNATGTFYADSVKGRFTVSQDNAKNTLNLQMNSLEPEDTAMYYCAADTKWIVCSRGYRYTPNWANQFKYWGQGTQVTVSS", "OD490": 1.75}
